FYI, the data here is from PubChem BioAssay.

# reported growth inhibition; entries follow
ASSAY TEXT: OD615 S. cerevisiae growth inhibition, permissive medium, pilot counter-assay, permissive growth control for S. cerevisiae lifespan shortening project (AID 705)
ASSAY CONTEXT: OD615, 24 h, at 10 µM, active compounds read high

# MOLECULE, UNIT OF MEASURE, growth inhibition
records = [
    ("CCOC(=O)C1=C(C)NC(C)=C(C(=O)OCC)C1C(=O)O", "%", -3.05),
    ("CC(C)(C)n1nc2c(c1NC(=O)Cc1ccc(F)cc1)CSC2", "%", 1.52),
    ("CCCn1c(CNC(=O)c2cccs2)nc2ccccc21", "%", -9.53),
    ("Cc1ccc(C(=O)N(Cc2nc(-c3ccc(C)cc3)no2)C(C)C)cc1", "%", -14.3),
    ("COC(=O)c1ccc(NC(=O)Cn2nc(SC)n(N)c2=S)cc1", "%", -11.2),
    ("O=C(CCCCCn1c(=O)[nH]c2ccsc2c1=O)N1CCN(C2CCCCC2)CC1", "%", -5.63),
    ("CN(C)C1NC(=O)c2cc(-c3ccccc3)sc2N1 (stereo unspecified)", "%", -5.92),
    ("Cc1ccc(-n2ncc3c(N4CCC5(CC4)OCCO5)ncnc32)c(C)c1", "%", 1.21),
    ("O=C(NCCN1CCOCC1)c1ccc(CS(=O)(=O)c2c(Cl)cccc2Cl)o1", "%", -0.145),
    ("CCN1c2ccccc2NC2N=C(OC)C(c3ccccc3)C21 (stereo unspecified)", "%", -38.2),
    ("CCCCCOC(=O)Cn1c(=O)oc2ccccc21", "%", -7.12),
]
